# Lookup of reported RT keyed by entry
# assay-info: Stability of marker solutions stored frozen at -10 to -20°C, followed by retention time at column calibration
# Type: physicochemical
# Set-up: unit not given here
# measurement-context: stored at -10° to -20°C; date of calibration 09-Jul-97, interval 48 days
# Method: In addition, solutions of the markers were stored for up to 3 ½ months under various storage conditions (2-8 °C, -10 to -20°C, with/without azide).
Answer with the value's number alone.

>>> measured("TV-109: 109-mer sequence-defined polypeptide molecular weight marker, molecular weight = 11727 daltons (peptide) AKKYAKKAEKAYAKKAKAAKEKKAYAKKEAKAYKAAEAKKKAKAEAKKYAKEAAKAKKEAYKAEAKKYAKAAKAEKKEYAAAEAKKAEAAKAYKAEAAKAAAKEAAYEA")
23.650
>>> measured("TV-66: 66-mer sequence-defined polypeptide molecular weight marker of Ala, Glu, Tyr, Lys, molecular weight = 7040 daltons (peptide) AKKYAKKEKAYAKAKKAEAKAAKKAKAEAKKYAKAAKAEKKEYAAAEAKYKAEAAKAAAKEAAYEA")
26.317

Let's switch to this molecule now.
Bench note: what RT did TV-77: 77-mer sequence-defined polypeptide molecular weight marker of Ala, Glu, Tyr, Lys, molecular weight = 8259 daltons (peptide) AKKYAKKEKAYAKKAEKAAKKAEAKAYKAAEAKKKAKAEAKKYAKAAKAEKKEYAAAEAKYKAEAAKAAAKEAAYEA show?
25.617

// data source = patent EP2239269B1
